These measurements were taken from PubChem BioAssay AID588492.

test: H9c2 cardiomyocyte survival under peroxide injury – uHTS, H9c2 cells, ATPLite luminescence, primary screen (AID 588492); details: H9c2 cardiomyocytes, 2 h, at 20 µM;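 note: 0% = DMSO wells with peroxide and 100% = DMSO wells without peroxide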
Hit rate of the full screen: of about 360,000 compounds, about 2,300 (0.64%) were called active.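 Rule for the calls: active = compounds giving at least 50% protection of heart cells from peroxide-induced death in the single-dose screen, raw or plate-pattern-corrected value; inactive = the rest.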 This is one part of a sample in which actives are shown more often than they occur.
Entry note: the call must match one of active, inactive

-- ask Hello, I am checking results. What call was entered for Cc1occc1C(=O)N/N=C/c1ccc(-c2cccc([N+](=O)[O-])c2)o1 ?
-- reply inactive

-- ask // return assay outcome for CCOC(=O)c1cnc2nc(SCc3ccccc3Cl)[nH]n2c1=O
-- reply inactive

-- ask For this compound, state the assay outcome: CCSc1nnc(SCC(=O)NNC(=O)c2ccccc2F)s1
-- reply inactive

-- ask Lab log entry: COc1ccc(-c2cc(C(=O)N(C)CC(=O)Nc3ccccc3Cl)c3ccccc3n2)cc1OC — outcome as called in the assay?
-- reply inactive

-- ask Fill in: this test's call for Cc1ccc(S(=O)(=O)Oc2ccc(/C=N/NC(=O)c3ccncc3)cc2)cc1 is ___
-- reply inactive

-- ask State the result this test recorded for CCOC(=O)c1cnc(-n2nc(C)cc2C)nc1NNc1cc(C)nc(-c2ccccc2)n1 .
-- reply active

-- ask Each compound tested received a call. Report the one for CCCCNc1ccc(C(=O)Nc2cccc(C)n2)cc1[N+](=O)[O-] .
-- reply inactive

###

assay: H9c2 cardiomyocyte survival under peroxide injury – uHTS, H9c2 cells, ATPLite luminescence, primary screen (AID 588492); conditions: H9c2 cardiomyocytes, 2 h, at 20 µM, hits give high values;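 note: 0% = DMSO wells with peroxide and 100% = DMSO wells without peroxide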
Hit rate of the full screen: of about 360,000 compounds, about 2,300 (0.64%) were called active. This excerpt belongs to a sample that is enriched for actives.
Would you kindly list protection from H2O2 cell death for each of these molecules?
Answers are plain numbers, in %.

# Molecule, protection from H2O2 cell death (%)
rows = [
    ("Cc1cccc(NC(=S)NCCc2ccc(Cl)cc2)c1C", -6.5),
    ("O=C(NCCc1ccc(Cl)cc1)c1cccc(N2CCCC2=O)c1", -1.2),
    ("COC(=O)c1ccc(S(=O)(=O)NCc2ccccc2)n1C", -1.9),
    ("O=C(Nc1ccc(C(=O)O)cc1)/C(=C/c1ccc([N+](=O)[O-])cc1)NC(=O)c1ccccc1", 4.6),
    ("O=C(NCCc1ccccc1)/C(=C\\c1ccc([N+](=O)[O-])cc1)NC(=O)c1ccccc1", 16.6),
]

Lab note: each molecule below needs its protection from H2O2 cell death filled in.
1. C/C(=N\NC(=O)c1cccc([N+](=O)[O-])c1)c1cccnc1
2. Cc1cc2c(cc1S(=O)(=O)CCC(=O)NCc1ccccc1)OCC(=O)N2

-- reply
9.5
2.9

Please give protection from H2O2 cell death for each item listed below.
1. COc1ccc2c(c1)c(=Cc1ccc(N(C)C)cc1)c1cc(-c3ccccc3)[n+](C)n12
2. COc1ccc(Cl)cc1NC(=O)CCS(=O)(=O)c1cc2c(cc1C)NC(=O)CO2
3. COC(=O)NNC(=O)C1CCC(C)CC1 (stereo not given)

-- reply
[-20, 54.6, -10]

###

experiment: H9c2 cardiomyocyte survival under peroxide injury – uHTS, H9c2 cells, ATPLite luminescence, primary screen (AID 588492); conditions: H9c2 cardiomyocytes, 2 h, at 20 µM, hits give high values;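 note: 0% = DMSO wells with peroxide and 100% = DMSO wells without peroxide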
Screen size: about 360,000 compounds; about 2,300 (0.64%) were called active. The list comes from a sample in which actives are over-represented; it also holds close analogues and randomly drawn compounds.
Property measured: protection from H2O2 cell death

Solved cases below.
# Compound, protection from H2O2 cell death
records = [
    ("Cc1onc(-c2ccccc2Cl)c1C(=O)OCc1nnc(-c2ccccc2)o1", "-13.6% (inactive)"),
    ("O=C(NN=Cc1ccc2c(c1)CCC2)c1ccccc1O", "-17.8% (inactive)"),
    ("COc1ccc(S(=O)(=O)/N=C2\\C=C(NS(=O)(=O)c3ccccc3)C(=O)c3ccccc32)cc1", "-11.4% (inactive)"),
    ("Cc1ccc(/C=N/NC(=O)C2=NNC(c3ccccc3)(c3ccccc3)C2)c(O)c1", "60.3% (active)"),
    ("Cc1ccc(Cl)cc1NC(=O)C1CCCN(c2cnccn2)C1 (stereo not given)", "1.6% (inactive)"),
]

// each compound listed below needs its protection from H2O2 cell death
1. COc1ccc(CCNc2cc(C)nc3c(-c4ccc(Cl)cc4)c(C)nn23)cc1OC
2. Cc1ccc2cc(/C=N/NC(=O)[C@@H]3CCCN3)c(Cl)nc2c1
3. CCCc1nc2ccccc2c(C(=O)OCc2nnc(-c3cc(OC)c(OC)c(OC)c3)o2)c1CC

-- reply
0.4% (inactive)
14% (inactive)
64.8% (active)

List reported protection from H2O2 cell death for each of these compounds:
1. Cc1cc(C)c(S(=O)(=O)c2ccc(F)cc2C)c(=O)[nH]1
2. CCc1nc2ccc(C(=O)NC3CCN(Cc4ccccc4)CC3)cn2c1N(C)CCN1CCOCC1

-- reply
1: 11.1% (inactive); 2: 7% (inactive)

###

test: H9c2 cardiomyocyte survival under peroxide injury – uHTS, H9c2 cells, ATPLite luminescence, primary screen (AID 588492); conditions: H9c2 cardiomyocytes, 2 h, at 20 µM, hits give high values;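 note: 0% = DMSO wells with peroxide and 100% = DMSO wells without peroxide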
The whole screen tested about 360,000 compounds, of which about 2,300 (0.64%) were called active. The entries come from a sample that favours actives as a whole.
Assignment: determine reported protection from H2O2 cell death for the given compounds.
Give bare numbers, in %.

# Compound, Unit spec, protection from H2O2 cell death
records = [
    ("COc1ccc(N2CCN(Cc3ccc(Br)s3)CC2)cc1", "%", -6.8),
    ("COc1ccc(N(CC(=O)N/N=C/c2cccc3c2OCCO3)S(=O)(=O)c2ccc(NC(C)=O)cc2)cc1", "%", 26.2),
    ("CN(Cc1c(F)cccc1Cl)C(=O)COC(=O)Cn1cnc2ccccc2c1=O", "%", -4),
]

Okay, here is my list. What is protection from H2O2 cell death for each of these?
1. COc1ccc(S(=O)(=O)N(CC(=O)N/N=C/c2ccc(C(=O)O)cc2)Cc2ccccc2)cc1OC
2. C/C(=N/Nc1nc(-c2ccccc2)c(CC(=O)O)s1)c1ccccc1

-- reply
1. -0.7
2. -8.5

Value sought for every listed compound: protection from H2O2 cell death.
1. CCn1c(/C=N/NC(=O)c2ccc(OC)cc2)nc2ccccc21
2. COc1ccc(-c2nc3n(c2Br)CCC3)cc1
3. COc1ccc(N(CC(=O)N/N=C/c2cccs2)S(=O)(=O)c2ccc(OC)c(OC)c2)cc1

-- reply
1. 50.7
2. -13.5
3. 52.7

###

assay: H9c2 cardiomyocyte survival under peroxide injury – uHTS, H9c2 cells, ATPLite luminescence, primary screen (AID 588492); conditions: H9c2 cardiomyocytes, 2 h, at 20 µM, hits give high values;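 note: 0% = DMSO wells with peroxide and 100% = DMSO wells without peroxide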
Out of some 360,000 compounds screened, about 2,300 (0.64%) were called active. What follows is part of a selection rich in actives, with near analogues and random picks from the rest.
Property measured: protection from H2O2 cell death (%)
One number for each entry, in %.

# Smiles representation, Property measured, Observed measurement
measured = [
    ("CCc1nc(Nc2ccc3nccnc3c2)c2oc3ccccc3c2n1", "protection from H2O2 cell death", 53.3),
]

State recorded protection from H2O2 cell death for all listed compounds.
1. O=c1cc(CN2CCN(S(=O)(=O)/C=C/c3ccccc3)CC2)c2ccc(O)cc2o1
2. Cn1c(C(=O)NCCN2CCc3ccccc3C2)cc2c(=O)[nH]c3ccccc3c21
3. Cn1c(C(=O)NCCc2ccsc2)cc2c(=O)n(C)c3ccccc3c21

-- reply
[24.9, 19.2, 96.5]

Please give protection from H2O2 cell death for each item listed below.
1. Cn1c(C(=O)N2CCC(C(N)=O)CC2)cc2c(=O)n(C)c3ccccc3c21
2. COc1ccccc1Nc1ncnc2c1oc1ccccc12

-- reply
1. 1.2
2. 7.1

###

experiment: H9c2 cardiomyocyte survival under peroxide injury – uHTS, H9c2 cells, ATPLite luminescence, primary screen (AID 588492); conditions: H9c2 cardiomyocytes, 2 h, at 20 µM, hits give high values;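 note: 0% = DMSO wells with peroxide and 100% = DMSO wells without peroxide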
Hit rate of the full screen: of about 360,000 compounds, about 2,300 (0.64%) were called active. The sample holds actives, similar compounds and a random draw of the others, so the mix is not that of the screen.
Property measured: protection from H2O2 cell death (%)
Answers are plain numbers, in %.

The cases that follow already have their protection from H2O2 cell death on record.
# Compound, Property measured, Observed measurement
measured = [
    ("O=C(N/N=C/c1cc(Cl)cc([N+](=O)[O-])c1O)C(O)(c1ccccc1)c1ccccc1", "protection from H2O2 cell death", 56.6),
    ("Cc1cc(C)c2c(n1)sc1c(=O)n(-c3ccccc3)c(=O)[nH]c12", "protection from H2O2 cell death", 4.5),
    ("CC1(C(=O)NCC2CCOCC2)Cc2c(-c3cccc(C(N)=O)c3)ccnc2O1 (stereo not given)", "protection from H2O2 cell death", 9.5),
    ("COc1ccc(S(=O)(=O)N2CCN(C(=S)NCC3CCCO3)CC2)cc1OC (stereo not given)", "protection from H2O2 cell death", -4.4),
    ("COc1ccccc1OCCn1c(SCC(N)=O)nc2ccccc21", "protection from H2O2 cell death", 3.9),
    ("O=[N+]([O-])c1cc(Cl)cc(/C=N/NC(=S)Nc2cc(S(=O)(=O)N3CCOCC3)ccc2Cl)c1O", "protection from H2O2 cell death", -20.3),
    ("N#CC1(NC(=O)COC(=O)Cc2n[nH]c(=O)c3ccccc23)CCCCC1", "protection from H2O2 cell death", 30.9),
    ("CCN(CC)CCCNC(=O)c1c(O)c2cc(F)cc3c2n(c1=O)C(C)CC3 (stereo not given)", "protection from H2O2 cell death", 22.2),
    ("COc1ccccc1C(=O)C(O)c1ccccc1OC (stereo not given)", "protection from H2O2 cell death", 1.8),
]

Turning to the following compound.
-- ask Give me measured protection from H2O2 cell death, please, for this compound: O=C(Cc1ccccc1)N/N=C/c1ccc(Cl)cc1Cl
-- reply -15.4
